Where do these numbers come from? They come from ChEMBL document CHEMBL1201862.

system: NCI/ADR-RES; assay: NCI tumour cell line growth inhibition, 48 h
Activity calls are given as the source filed them. Cut-off read from the data, not from the text of the source: active = GI50 up to about 1.1 µM and inactive = higher.
Here the recorded GI50 is given for each entry.

Example entries and their recorded answers appear below.
[[record]]
compound = "c1ccc(CN2CCC(=NN3CCCCC3)CC2)cc1"
measured_metric = "GI50"
reported = "> 100 µM (inactive)"

[[record]]
compound = "CC(C)[C@@H]1CC[C@@H](C)C[C@H]1OC(=O)/C=C1\\C(C(=O)O[C@@H]2C[C@H](C)CC[C@H]2C(C)C)[C@H]2C=C[C@@H]1O2 (some centres undefined)"
measured_metric = "GI50"
reported = "> 100 µM (inactive)"

[[record]]
compound = "O=C(/C=C/c1ccccc1)Oc1ccc(C(=O)/C=C/c2ccccc2)cc1"
measured_metric = "GI50"
reported = "12.1 µM (inactive)"


Note: attention shifts to another entry.
Kindly note the recorded GI50 for Cc1ccc2[nH]c(=O)c(-c3cnc(O)nn3)c(O)c2c1 , which is > 100 µM (inactive)

###

tested on: CCRF-CEM; experiment: NCI tumour cell line growth inhibition, 48 h
Activity calls are given as the source filed them. No stated cut-off is given here; in the data, active = GI50 up to about 1.1 µM and inactive = higher.
MEASURED_METRIC: GI50

[[record]]
molecule = "O=S(=O)(c1ccc(/N=C2\\NC(c3ccc(O)cc3)(c3ccccc3O)c3ccccc32)cc1)c1ccc(/N=C2/NC(c3ccc(O)cc3)(c3ccccc3O)c3ccccc32)cc1 (stereo not given)"
reported = "3.37 µM (inactive)"

[[record]]
molecule = "C/C(C[n+]1ccccc1)=N\\N=C(N)N"
reported = "> 100 µM (inactive)"

[[record]]
molecule = "Cc1cc2[nH]c3c(C#N)c(-c4ccccc4)c(/C=N/c4ccc(F)cc4)c(=O)n3c2cc1C"
reported = "> 100 µM (inactive)"


Kindly note the recorded GI50 for Clc1ccc(-c2nn3c(C45CC6CC(CC(C6)C4)C5)nnc3s2)cc1 , which is > 100 µM (inactive)

Kindly note the recorded GI50 for Nc1nc(NC2C=C(CO)C(O)C2O)c([N+](=O)[O-])c(=O)[nH]1 (stereo not given) , which is > 100 µM (inactive)

###

Here the recorded GI50 is given for each entry.
system: COLO 205; assay: NCI tumour cell line growth inhibition, 48 h
Calls of active or inactive are those of the source. Cut-off read from the data, not from the text of the source: active = GI50 up to about 1.1 µM and inactive = higher.

Example entries and their recorded answers appear below.
[[record]]
molecule = "CC(C)=CCNc1nc(Cl)nc2[nH]cnc12"
measured_metric = "GI50"
reported = "> 100 µM (inactive)"

[[record]]
molecule = "COc1ccc(Nc2cnc3cc(N)ccc3n2)cc1OC"
measured_metric = "GI50"
reported = "> 100 µM (inactive)"

[[record]]
molecule = "C#CCOC(=O)c1ccccc1O"
measured_metric = "GI50"
reported = "> 100 µM (inactive)"

[[record]]
molecule = "CC1CCC2(C)C(CC=C(C=O)C2(O)C=O)C12CO2 (stereo not drawn)"
measured_metric = "GI50"
reported = "1.33 µM (inactive)"


GI50 value, target or system COLO 205, for O=c1c2ccccc2nc(-c2cccc([N+](=O)[O-])c2)n1O : 31.3 µM (inactive)

GI50 value, target or system COLO 205, for Cc1ccc2c(c1)C(=O)C(Cc1ccccc1C(=O)O)C2 (stereo not drawn) : > 100 µM (inactive)

GI50 value, target or system COLO 205, for CN(C)CCc1c2c(nc3ccccc13)C(=O)c1cccnc1C2=O : 1.97 µM (inactive)

GI50 value, target or system COLO 205, for COC(=O)C1(NC(=O)C(CC(=O)OCc2ccccc2)NC(=O)OCc2ccccc2)CCCCCC1 (stereo not drawn) : 21.1 µM (inactive)
